molecular target: IRAK-4 (Homo sapiens); construct: purchased Carna Biosciences, Inc; test: IRAK-4 Enzyme Inhibition Test (LANCE method); assay type: biochemical; settings: compound concentration 1 μM; well without enzyme = 100% inhibition; read-out: IRAK4 enzyme inhibitory rate (%) at 1 μM
property: inhibition at 1 µM (%)

# compound, property, u, endpoint_result
measured = [
    ("Cn1cc(NC(=O)c2coc(-c3ccnc(NCC(F)(F)F)c3)n2)c(N2CC(CO)C(C)(C)C2=O)n1 (centres unmarked)", "inhibition at 1 µM", "%", 99),
    ("CN(C)CC1CN(c2nn(C)cc2NC(=O)c2coc(-c3ccnc(NCC(F)(F)F)c3)n2)C(=O)C1(C)C (centres unmarked)", "inhibition at 1 µM", "%", 100),
    ("CN(C)CC1CC(=O)N(c2nn(C)cc2NC(=O)c2coc(-c3ccnc(NCC(F)(F)F)c3)n2)C1 (centres unmarked)", "inhibition at 1 µM", "%", 100),
    ("Cn1cc(NC(=O)c2coc(-c3ccnc(NCC(F)(F)F)c3)n2)c(N2CCOC2=O)n1", "inhibition at 1 µM", "%", 99),
    ("CNCC1CN(c2nn(C)cc2NC(=O)c2coc(-c3ccnc(NCC(F)(F)F)c3)n2)C(=O)N1C (centres unmarked)", "inhibition at 1 µM", "%", 98),
    ("Cn1cc(NC(=O)c2coc(-c3ccnc(NCC(F)(F)F)c3)n2)c(N2CCNC2=O)n1", "inhibition at 1 µM", "%", 99),
    ("CN1CCN(c2nn(C)cc2NC(=O)c2cccc(N3CC4(CCNC4)NC3=O)n2)C1=O (centres unmarked)", "inhibition at 1 µM", "%", 100),
    ("Cn1cc(NC(=O)c2coc(-c3ccnc(NCC(F)F)c3)n2)c(N2CCN(CCO)C2=O)n1", "inhibition at 1 µM", "%", 99),
]

----------
Molecular target: IRAK-4 (Homo sapiens)
Construct: purchased Carna Biosciences, Inc
Sequence (Q9NWZ3 1-460): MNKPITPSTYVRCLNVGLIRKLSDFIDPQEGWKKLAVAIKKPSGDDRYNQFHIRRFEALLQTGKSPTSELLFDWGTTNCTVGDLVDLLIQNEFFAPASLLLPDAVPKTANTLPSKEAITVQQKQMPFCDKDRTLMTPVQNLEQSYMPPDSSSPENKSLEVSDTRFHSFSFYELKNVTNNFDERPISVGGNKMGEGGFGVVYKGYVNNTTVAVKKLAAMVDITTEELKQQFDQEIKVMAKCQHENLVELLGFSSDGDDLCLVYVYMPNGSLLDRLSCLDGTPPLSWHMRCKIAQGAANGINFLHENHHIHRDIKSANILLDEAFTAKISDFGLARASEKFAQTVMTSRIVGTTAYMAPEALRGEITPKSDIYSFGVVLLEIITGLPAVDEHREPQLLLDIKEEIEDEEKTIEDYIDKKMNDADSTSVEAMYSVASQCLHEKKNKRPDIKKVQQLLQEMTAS
Assay: IRAK-4 Enzyme Inhibition Test (LANCE method)
Type: biochemical
Conditions: compound concentration 1 μM; well without enzyme = 100% inhibition; read-out: IRAK4 enzyme inhibitory rate (%) at 1 μM
property: inhibition at 1 µM (%)

Answered cases to consult:
# compound, target_entity, u, inhibition at 1 µM
rows = [
    ("Cn1cc(NC(=O)c2cccc(N3CC4(CCNC4)NC3=O)n2)c(N2CCC(C)(C)C2=O)n1 (stereo not drawn)", "IRAK-4 (Homo sapiens)", "%", 100),
    ("CN1CCN(c2nn(C)cc2NC(=O)c2coc(-c3ccnc(NCC(F)(F)F)c3)n2)C1=O", "IRAK-4 (Homo sapiens)", "%", 99),
    ("CC1CCN(c2nn(C)cc2NC(=O)c2coc(-c3ccnc(NCC(F)(F)F)c3)n2)C1=O (stereo not drawn)", "IRAK-4 (Homo sapiens)", "%", 98),
    ("Cn1cc(NC(=O)c2coc(-c3ccnc(NCC4CC4)c3)n2)c(N2CCN(CCO)C2=O)n1", "IRAK-4 (Homo sapiens)", "%", 100),
    ("Cn1cc(NC(=O)c2coc(-c3ccnc(NCC(F)(F)F)c3)n2)c(N2CCC(C)(C)C2=O)n1", "IRAK-4 (Homo sapiens)", "%", 98),
]

1 = Cn1cc(NC(=O)c2coc(-c3ccnc(NCC(F)(F)F)c3)n2)c(N2C[C@@H](O)CC2=O)n1
2 = Cn1cc(NC(=O)c2ccn(C(F)F)n2)c(N2CCC(C)(C)C2=O)n1
*Q* Select the item whose inhibition at 1 µM value is smaller, choosing between 1 and 2 . Respond with the label that goes with your answer.
*A* 2
(2: 56%, 1: 98%)

A = Cn1cc(NC(=O)c2coc(-c3ccnc(NCC(F)(F)F)c3)n2)c(N2CCN(CCO)C2=O)n1
B = Cc1cccc(C(=O)Nc2cn(C)nc2N2CCC(C)(C)C2=O)c1
*Q* Select the item whose inhibition at 1 µM value is smaller, choosing between A and B . Respond with the label that goes with your answer.
*A* B
(B: 30%, A: 100%)

1 = Cc1cccc(C(=O)Nc2cn(C)nc2N2CCC(C)(C)C2=O)n1
2 = CC(O)CN1CCN(c2nn(C)cc2NC(=O)c2coc(-c3ccnc(NCC(F)(F)F)c3)n2)C1=O (stereo not drawn)
*Q* Select the item whose inhibition at 1 µM value is smaller, choosing between 1 and 2 . Respond with the label that goes with your answer.
*A* 1
